targetOrTestSystem: T1, 4-Met substituted E. coli Cir (colicin Ia receptor), the paper's wildtype (WT) Cir (E. coli, UniProt P17315 26-663, W338 mutated to methionine | L343 mutated to methionine | F589 mutated to …)
T1 construct: Cir (colicin Ia receptor, TonB-dependent transporter), E. coli, mature coding region of cirA with four residues changed to methionine (4-Met); No TEV cleavage of Cir is described; also called apo-Cir; His-tagged Cir; not shown: His10, N-terminal, kept
T1 sequence (looked up): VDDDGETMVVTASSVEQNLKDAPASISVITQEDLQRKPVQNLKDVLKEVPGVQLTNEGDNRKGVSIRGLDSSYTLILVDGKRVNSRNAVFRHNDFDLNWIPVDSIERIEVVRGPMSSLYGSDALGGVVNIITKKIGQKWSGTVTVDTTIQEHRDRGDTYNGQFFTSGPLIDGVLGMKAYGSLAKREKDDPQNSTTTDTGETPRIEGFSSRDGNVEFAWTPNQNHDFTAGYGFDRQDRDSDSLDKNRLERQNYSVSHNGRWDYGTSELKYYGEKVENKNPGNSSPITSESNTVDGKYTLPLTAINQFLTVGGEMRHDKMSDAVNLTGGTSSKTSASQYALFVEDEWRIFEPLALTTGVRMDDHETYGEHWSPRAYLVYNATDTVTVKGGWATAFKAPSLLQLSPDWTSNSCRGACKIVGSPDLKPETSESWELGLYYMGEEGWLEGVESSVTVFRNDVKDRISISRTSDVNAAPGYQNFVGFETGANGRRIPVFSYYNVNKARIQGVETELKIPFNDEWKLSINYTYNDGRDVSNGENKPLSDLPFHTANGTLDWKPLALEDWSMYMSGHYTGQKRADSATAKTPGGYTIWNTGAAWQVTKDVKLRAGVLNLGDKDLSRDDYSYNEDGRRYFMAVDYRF
assayRemarks: AUC; sedimentation velocity, NAPol-solubilised Cir and its mixtures with MccV in phosphate-buffered saline, 50,000 rpm, 20 C; single-site model
details: both partners purified
valueKind: Kd (nM)
Could you give me the number in nM? Just the number is fine.

Ask | Please look at this binder and report its Kd: Microcin V (MccV), mature, wildtype (natural protein, E. coli, UniProt P22522 16-103, looked up, biotinylated (EZ-Link Sulfo-NHS-LC kit) for BLI and ELISA; not labelled for cryo-EM and SV-AUC, Only residues 57-88 (mature numbering) were resolved in the map; also called WT MccV; Colicin V; source: E. coli BL21 (DE3), purified (HisTrap as His6-MBP fusion, TEV cleavage, second nickel column, flowthrough); not shown: His6, N-terminal, cleaved; MBP, N-terminal, cleaved) ASGRDIAMAIGTLSGQFVAGGIGAAAGGVAGGAIYDYASTHKPNPAMSPSGLGGTIKQKPEGIPSEAWNYAAGRLCNWSPNNLSDVCL
Reply | 600
